meta.source: patent US6875741

target or test system: T1, Soluble IGF-1R (R&D Systems, Cat. # 391-GR) (UniProt P08069 31-935, limits assumed)
T1 construct: extracellular domain; bought; also called sIGF-1R
measurement notes: phage ELISA ratios compared
quantity measured: IGF-1R/IR ratio comparison
Would you mind answering with just the numeric figure?

Here is how some binders turned out for IGF-1R/IR ratio comparison.
// lookup IGF-1R/IR ratio comparison for NSRDGGFYLQLERLLGFPVTG [20E2B-3-D4-IGFR]
9.6

Next entry: LRRQAPVEENFYDWFVRQVSGDRVGG [H2CA-3-D7-IGFR]
3.7

Next entry: QSPVGSSHEDFYDWFFRQVAQSGAHQ [H2CA-3-D6-IGFR]
4

// switching to the query binder
// lookup IGF-1R/IR ratio comparison for IIGGFYSYFNSVLRLGT [NNRPγ-4-A1-IR]
6
